Experiment: Modulation of gamma-secretase-mediated cleavage of APP assessed as reduction in amyloid beta42 production
measurementKind: pEC50
Just so you know, pEC50 here is -log10 of the concentration in molar units; reply with that number alone.

Briefly, pEC50 measured for O=C(O)C1(c2ccc(-c3ccc(Cl)c(Cl)c3)c(F)c2)CC1 : 4.40

----------
// values below are reported concentration at 4 h
Test: Drug uptake in wild type CF1 mouse plasma at 30 mg/kg, po after 4 hrs
Type: ADME, organism-based
Set-up: dose 30 mg/kg, route oral

Examples from the recorded data:
Briefly, concentration at 4 h measured for CC(C)(C)CC(c1ccc(CC(=O)O)cc1-c1ccc(C(F)(F)F)cc1)N1CCC(C(F)(F)F)CC1 (racemic) : 37 µM

Briefly, concentration at 4 h measured for O=C(O)Cc1ccc(C(CC2CCCCC2)N2CCC(C(F)(F)F)CC2)c(-c2ccc(C(F)(F)F)cc2)c1 (stereo not drawn) : 25 µM

Next up:
Briefly, concentration at 4 h measured for CC(C)CCC(c1ccc(C(C)C(=O)O)cc1-c1ccc(C(F)(F)F)cc1)N1CCC(C(F)(F)F)CC1 (stereo not drawn) : 22 µM
